# merged literature set: IC50 with Tyrosine-protein kinase receptor UFO (Homo sapiens, UniProt P30530)

Compound | Scale unit | Qualifier operator | IC50
COc1cc2nccc(Oc3ncc(NC(=O)c4nn(C(C)C)cc(-c5ccc(F)cc5)c4=O)cn3)c2cc1OC | nM | = | 5
COc1cc2nccc(Oc3ccc(NC(=O)c4cn(C(C)C)nc(-c5ccc(F)cc5)c4=O)nc3)c2cc1OC | nM | = | 12
COCC(C)Nc1ncc2c(-c3ccc(C(C)N4CCCC4)cc3)cc(C3CCC(O)CC3)n2n1 (stereo not shown) | nM | ≤ | 100
Cc1c(C(=O)Nc2ccc(Oc3ncnc4[nH]cc(-c5ccccc5)c34)c(F)c2)c(=O)c2cc(C(C)C)ccc2n1C | nM | = | 26
COC[C@H](C)Nc1ncc2c(-c3cnn(CS(C)(=O)=O)c3)cc([C@H]3CC[C@H](O)CC3)n2n1 | nM | ≤ | 100

====

pIC50: −log10 of the molar value.
# merged literature set: pIC50 with Tyrosine-protein kinase receptor UFO (Homo sapiens)
Experimental endpoint: pIC50

Compound | Target under test | Value observed
COCCOc1cc2nccc(Oc3ccc(NC(=O)c4c(C)nc(C)c(C5=CCCC5)c4O)cc3F)c2nc1OC | Tyrosine-protein kinase receptor UFO (Homo sapiens) | ≥ 7.00
CCN(C(=O)N1CCN(c2cc(-c3cc([C@H]4CC[C@H](O)CC4)n4nc(N[C@@H](C)COC)ncc34)ccn2)CC1)C(C)C | Tyrosine-protein kinase receptor UFO (Homo sapiens) | ≥ 7.00
COCC(C)Nc1ncc2c(-c3ccc(C(C)(C)c4nnc(C)o4)s3)cc(C3CCC(O)CC3)n2n1 (stereo not shown) | Tyrosine-protein kinase receptor UFO (Homo sapiens) | ≥ 7.00
COc1cc2ncnc(Oc3ccc(NC(=O)c4c(C)n(C)c5ccc(OC(F)(F)F)cc5c4=O)cc3F)c2cc1OCCCN1CCOCC1 | Tyrosine-protein kinase receptor UFO (Homo sapiens) | 8.62
CC[C@H](C)Nc1ncc2c(OC3C[C@@H](C)O[C@@H](C)C3)ncc([C@H]3CC[C@H](O)CC3)c2n1 (stereo partly shown) | Tyrosine-protein kinase receptor UFO (Homo sapiens) | 5.00 to 6.00
COC[C@H](C)Nc1ncc2c(-c3cnn([C@H]4CCN(C)C4=O)c3)cc([C@H]3CC[C@H](O)CC3)n2n1 | Tyrosine-protein kinase receptor UFO (Homo sapiens) | ≥ 7.00
COc1cc2nccc(Oc3ccc(NC(=O)c4c(C)n(C)c(C)c(C5=CCOCC5)c4=O)cc3F)c2nc1OC | Tyrosine-protein kinase receptor UFO (Homo sapiens) | ≥ 7.00

====

# merged literature set: IC50 with Tyrosine-protein kinase receptor UFO (Homo sapiens, UniProt P30530)
Experimental endpoint: IC50

Compound | Value observed
COc1cc2nccc(Oc3ccc(NC(=O)c4c(C)n(C)c(C)c(N5CCCCC5)c4=O)cc3F)c2nc1OC | ≤ 100 nM
COC[C@H](C)Nc1ncc2c(-c3cnccc3C)cc([C@H]3CC[C@H](O)CC3)n2n1 | 1000 to 10000 nM
COc1cc2ncnc(Oc3ccc(NC(=O)c4cn(-c5ccc(F)cc5F)c5nc(N6CCC(N)C6)c(F)cc5c4=O)cc3F)c2cc1OC (stereo not shown) | 81 nM
C=C(C)n1c(C)cc(C)c(C(=O)Nc2ccc(Oc3ccnc4cc(OC)c(OC)nc34)c(F)c2)c1=O | ≤ 100 nM
CCCCNc1ncc2c(OC3CCNCC3)ncc([C@H]3CC[C@H](O)CC3)c2n1 | ≤ 100 nM
CCCCC[C@H](C)Nc1ncc2c(-c3ccc(CN4CCN(C)CC4)cc3)cc([C@H]3CC[C@@H](O)CC3)n2n1 | 100 to 1000 nM
COc1cc2nccc(Oc3ccc(NC(=O)c4cn(CCF)c(C)c(C5=CCCCC5)c4=O)cc3F)c2nc1OC | ≤ 100 nM

====

# merged literature set: pIC50 with UniProt P30530
pIC50: −log10 of the molar value.

Molecule | Target under test | pIC50
COC[C@H](C)Nc1ncc2c(OC3CCOCC3)ncc(-c3ccnnc3)c2n1 | UniProt P30530 | 5.00 to 6.00
COc1cc2nccc(Oc3ccc(NC(=O)c4cn(CC5CC[S+]([O-])CC5)cc(-c5ccc(C)cc5)c4=O)nc3)c2cc1OC (stereo not shown) | UniProt P30530 | 8.22
COC(=O)c1ccc(Nc2ncc3c(OC4CCNCC4)ncc([C@H]4CC[C@H](O)CC4)c3n2)cc1 | UniProt P30530 | ≥ 7.00
[2H]C([2H])([2H])OCC(C)Nc1ncc2c(-c3cnn(C4COC4)c3)cc(C3CCC(O)CC3)n2n1 (stereo not shown) | UniProt P30530 | ≥ 7.00

====

# merged literature set: IC50 with Tyrosine-protein kinase receptor UFO (Homo sapiens, UniProt P30530)
Experimental endpoint: IC50

Compound | Value observed
COc1cc2nccc(Oc3ccc(NC(=O)c4c(C)n(C)c(C)c(/C=C/C(C)(C)C)c4=O)cc3F)c2nc1OC | ≤ 100 nM
CNc1ncc2c(n1)N1CCN=C1C(c1c(C)ccc(NS(=O)(=O)c3ccccc3OC(F)(F)F)c1F)=C2 | > 10000 nM
Cc1ccc(-c2cn(C3CCOCC3)nc(C(=O)Nc3ccc(Oc4ccnc5cc6c(cc45)OCCO6)cn3)c2=O)cc1 | 39 nM
Nc1ncc(-c2cnn(C3CCNCC3)c2)cc1-c1nnc(-c2ccccn2)o1 | < 500 nM
CC(COC(F)F)Nc1ncc2c(-c3cnn(C(C)(C)C(=O)N4CCOCC4)c3)cc(C3CCC(O)CC3)n2n1 (stereo not shown) | ≤ 100 nM
COc1cc2nccc(Oc3ccc(NC(=O)c4cnc(C)c(C5=CCOCC5)c4O)cc3F)c2cc1OC | ≤ 100 nM
COc1cc2c(Oc3ccc(NC(=O)c4c(C)n(C)c5ccc(OC(F)(F)F)cc5c4=O)cc3F)ncnc2cc1OCCC(C)C | 59.4 nM

====

# merged literature set: pIC50 with Tyrosine-protein kinase receptor UFO (Homo sapiens)
pIC50: −log10 of the molar value.
Experimental endpoint: pIC50

Chemical string | Experimental endpoint | Value observed
COCCOc1nc(Nc2ccc(CN3CCN(C)CC3)cc2)nc2[nH]cc(-c3ccc(F)cc3)c12 | pIC50 | > 7.52
COCCOc1cc2nccc(Oc3cc(F)c(NC(=O)c4c(C)n(C)c(C)c(C#N)c4=O)cc3F)c2nc1OC | pIC50 | 6.52 to 7.00
C[C@@H](CC(F)(F)F)Nc1ncc2c(OC3CC(C)(C)N(C[C@@H]4CCCO4)C(C)(C)C3)ncc([C@H]3CC[C@H](O)CC3)c2n1 | pIC50 | ≥ 7.00
COc1cc2nccc(Oc3ccc(NC(=O)c4cccn(-c5ccc(F)cn5)c4=O)cc3F)c2nc1OC | pIC50 | ≥ 7.00

====

# merged literature set: pIC50 with Tyrosine-protein kinase receptor UFO (Homo sapiens, UniProt P30530)
pIC50: −log10 of the molar value.

Compound | Target under test | pIC50
COCC(C)Nc1ncc2c(-c3cnn(CC4CCCO4)c3)cc(C3CCC(O)CC3)n2n1 (centres unmarked) | Tyrosine-protein kinase receptor UFO (Homo sapiens, UniProt P30530) | ≥ 7.00
COC[C@H](C)Nc1ncc2c(-c3cncc(C#N)c3)cc([C@H]3CC[C@H](O)CC3)n2n1 | Tyrosine-protein kinase receptor UFO (Homo sapiens, UniProt P30530) | 6.00 to 7.00
CC(CC1CC1)Nc1ncc2c(-c3ccc(CN4CCOCC4)cc3)cc(C3CCC(O)CC3)n2n1 (centres unmarked) | Tyrosine-protein kinase receptor UFO (Homo sapiens, UniProt P30530) | ≥ 7.00
COC[C@H](C)Nc1ncc2c(-c3ccc(C)nc3)cc([C@H]3CC[C@H](O)CC3)n2n1 | Tyrosine-protein kinase receptor UFO (Homo sapiens, UniProt P30530) | ≥ 7.00
CNC(=O)c1cc(-c2cc([C@H]3CC[C@H](O)CC3)n3nc(N[C@@H](C)COC)ncc23)cc(C)n1 | Tyrosine-protein kinase receptor UFO (Homo sapiens, UniProt P30530) | 6.00 to 7.00
COc1cc2nccc(Oc3cnc(NC(=O)c4cn(C5CCOCC5)cc(-c5ccc(F)cc5)c4=O)nc3)c2cc1OC | Tyrosine-protein kinase receptor UFO (Homo sapiens, UniProt P30530) | 7.82
COC[C@H](C)Nc1ncc2c(-c3cnn(CCS(C)(=O)=O)c3)cc([C@H]3CC[C@H](O)CC3)n2n1 | Tyrosine-protein kinase receptor UFO (Homo sapiens, UniProt P30530) | ≥ 7.00
COc1cc2ncnc(Oc3ccc(NC(=O)c4cn(-c5ccc(F)cc5)c5cc(N6CCNCC6)c(F)cc5c4=O)cc3F)c2cc1OC | Tyrosine-protein kinase receptor UFO (Homo sapiens, UniProt P30530) | 7.42
CNC(=O)N[C@H]1CC[C@H](c2cnc(OC3CCOCC3)c3cnc(N[C@@H](C)COC)nc32)CC1 | Tyrosine-protein kinase receptor UFO (Homo sapiens, UniProt P30530) | 5.00 to 6.00
COc1cc2nccc(Oc3ccc(NC(=O)c4cnc(C)c(C5=CCOCC5)c4O)cc3)c2cc1OC | Tyrosine-protein kinase receptor UFO (Homo sapiens, UniProt P30530) | ≥ 7.00
CN1CCC(n2cc(-c3cnc(N)c(-c4nnc(-c5c(Cl)cccc5Cl)o4)c3)cn2)CC1 | Tyrosine-protein kinase receptor UFO (Homo sapiens, UniProt P30530) | > 6.30
COc1cc2nccc(Oc3ccc(NC(=O)c4c(C)c(Br)c(C)n(C5CCCC5)c4=O)cc3F)c2nc1OC | Tyrosine-protein kinase receptor UFO (Homo sapiens, UniProt P30530) | ≥ 7.00
CCCCCCCCCCCCN1CCC(n2cc(-c3cnc(N)c(-c4ncc(-c5ccccc5)o4)c3)cn2)CC1 | Tyrosine-protein kinase receptor UFO (Homo sapiens, UniProt P30530) | > 6.30
COC[C@H](C)Nc1ncc2c(OC3CCOCC3)ncc([C@H]3CC[C@@](C)(O)CC3)c2n1 | Tyrosine-protein kinase receptor UFO (Homo sapiens, UniProt P30530) | 5.00 to 6.00
COC[C@H](C)Nc1ncc2c(-c3ccnc(N4CCN(C)CC4)c3)cc([C@H]3CC[C@H](O)CC3)n2n1 | Tyrosine-protein kinase receptor UFO (Homo sapiens, UniProt P30530) | ≥ 7.00
CCCCC[C@H](C)Nc1ncc2c(-c3ccc(S(=O)(=O)N4CCOCC4)cc3)cc([C@H]3CC[C@@H](O)CC3)n2n1 | Tyrosine-protein kinase receptor UFO (Homo sapiens, UniProt P30530) | 6.00 to 7.00
C[C@@H](CC(F)(F)F)Nc1ncc2c(O[C@H]3C[C@H](O)C3)ncc([C@H]3CC[C@H](O)CC3)c2n1 | Tyrosine-protein kinase receptor UFO (Homo sapiens, UniProt P30530) | 6.00 to 7.00
COC[C@H](C)Nc1ncc2c(-c3cnn(C)c3)cc([C@H]3CC[C@H](O)CC3)n2n1 | Tyrosine-protein kinase receptor UFO (Homo sapiens, UniProt P30530) | ≥ 7.00
CC[C@H](C)Nc1ncc2c(OC3CCN(c4ncccn4)CC3)ncc([C@H]3CC[C@H](O)CC3)c2n1 | Tyrosine-protein kinase receptor UFO (Homo sapiens, UniProt P30530) | 6.00 to 7.00
CCCCC[C@H](C)Nc1ncc2c([C@H]3CC[C@H](C(=O)N4CCOCC4)CC3)cc([C@H]3CC[C@H](O)CC3)n2n1 | Tyrosine-protein kinase receptor UFO (Homo sapiens, UniProt P30530) | 6.00 to 7.00
CC(C)C(=O)N1CCC(c2cc(-c3ccc(NC(=O)c4c5n(n(-c6ccccc6)c4=O)CCCC5)cc3)c3c(N)ncnn23)CC1 | Tyrosine-protein kinase receptor UFO (Homo sapiens, UniProt P30530) | 7.30 to 8.30
Nc1ncnn2c1c(-c1ccc(NC(=O)c3c4n(n(-c5ccccn5)c3=O)CCOC4)cc1)cc2[C@H]1CC[C@H](O)CC1 | Tyrosine-protein kinase receptor UFO (Homo sapiens, UniProt P30530) | > 8.30
COC[C@H](C)Nc1ncc2c(-c3cncc([S@](C)(=N)=O)c3)cc([C@H]3CC[C@@H](O)CC3)n2n1 | Tyrosine-protein kinase receptor UFO (Homo sapiens, UniProt P30530) | 6.00 to 7.00
CNC(=O)c1cc(-c2cc([C@H]3CC[C@H](O)CC3)n3nc(N[C@@H](C)CC(F)(F)F)ncc23)ccn1 | Tyrosine-protein kinase receptor UFO (Homo sapiens, UniProt P30530) | ≥ 7.00
O=C(Nc1ccc(Oc2ccnc(NC(=O)C3CC3)c2)cn1)c1c2n(n(-c3ccccc3)c1=O)CCCC2 | Tyrosine-protein kinase receptor UFO (Homo sapiens, UniProt P30530) | 8.15
Nc1nccc(Oc2ccc(NC(=O)c3nn(C4CC4)cc(-c4ccc(F)cc4)c3=O)cn2)c1Cl | Tyrosine-protein kinase receptor UFO (Homo sapiens, UniProt P30530) | 7.92
Nc1ncc(-c2cnn(C3CCN(C(=O)C4CC4)CC3)c2)cc1-c1nnc(-c2c(Cl)cccc2Cl)o1 | Tyrosine-protein kinase receptor UFO (Homo sapiens, UniProt P30530) | > 6.30
CN1CCC(n2cc(-c3cnc(N)c(-c4noc(-c5ccccc5)n4)c3)cn2)CC1 | Tyrosine-protein kinase receptor UFO (Homo sapiens, UniProt P30530) | > 6.30
CC[C@H](C)Nc1ncc2c(OC3CCOCC3)ncc([C@H]3CC[C@H](O)CC3)c2n1 | Tyrosine-protein kinase receptor UFO (Homo sapiens, UniProt P30530) | 6.00 to 7.00
